Cited source for all entries: patent US11149031B2

# Assay System: ERα in MCF7 cells (Homo sapiens (Human))
# Sequence (P03372 whole entry): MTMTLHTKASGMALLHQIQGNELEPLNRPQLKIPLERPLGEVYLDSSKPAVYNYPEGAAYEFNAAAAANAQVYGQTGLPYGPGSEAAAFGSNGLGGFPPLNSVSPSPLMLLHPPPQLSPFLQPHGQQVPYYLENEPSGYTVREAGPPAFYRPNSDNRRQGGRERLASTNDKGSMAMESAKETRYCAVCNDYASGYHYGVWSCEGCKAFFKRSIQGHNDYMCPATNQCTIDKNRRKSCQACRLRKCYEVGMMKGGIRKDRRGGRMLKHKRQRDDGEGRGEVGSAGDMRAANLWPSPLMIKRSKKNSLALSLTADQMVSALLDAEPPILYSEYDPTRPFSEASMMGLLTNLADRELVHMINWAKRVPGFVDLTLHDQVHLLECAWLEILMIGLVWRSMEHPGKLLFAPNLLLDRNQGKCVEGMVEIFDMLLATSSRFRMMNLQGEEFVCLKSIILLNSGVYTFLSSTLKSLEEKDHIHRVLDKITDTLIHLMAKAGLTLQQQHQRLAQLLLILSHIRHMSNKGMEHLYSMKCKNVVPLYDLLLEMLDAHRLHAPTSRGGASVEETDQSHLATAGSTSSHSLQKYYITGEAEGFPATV
# Experimental Details: Test C: estrogen receptor degradation activity, ERα in cell western assay in MCF7 cells
# Format: cell-based
# Details: 4 hours post compound addition, ERα in cell western, read-out: Degradation IC50
Recorded DC50 for the following molecules
API: value field is a number in nM; no unit string.

Here is how some molecules turned out for DC50.
CCOc1ccc(C2=C(c3ccc(O[C@H]4CCN(CCCF)C4)nc3)c3ccc(O)cc3CCC2)c(F)n1 : 0.3
Oc1ccc2c(c1)CCCC(c1ccc(Cl)cc1Cl)=C2c1cnc(O[C@H]2CCN(CCCF)C2)nc1 : 0.5
Oc1cc2c(cc1F)C(c1ccc(O[C@H]3CCN(CCCF)C3)cc1)=C(c1ccc3c(c1)CCN3)CCO2 : 2

// next item, DC50 requested
Reported DC50 for `CCOc1nccc(C2=C(c3ccc(O[C@H]4CCN(CCCF)C4)cc3)c3ccc(O)cc3SC2)c1Cl` was 0.2
